Data origin: patent US20240116985A1

tgt: full-length beta-Catenin (Uniprot ID P35222) (Homo sapiens)
Construct: 10 nM full-length beta-Catenin (Uniprot ID P35222)
Sequence (P35222 whole entry): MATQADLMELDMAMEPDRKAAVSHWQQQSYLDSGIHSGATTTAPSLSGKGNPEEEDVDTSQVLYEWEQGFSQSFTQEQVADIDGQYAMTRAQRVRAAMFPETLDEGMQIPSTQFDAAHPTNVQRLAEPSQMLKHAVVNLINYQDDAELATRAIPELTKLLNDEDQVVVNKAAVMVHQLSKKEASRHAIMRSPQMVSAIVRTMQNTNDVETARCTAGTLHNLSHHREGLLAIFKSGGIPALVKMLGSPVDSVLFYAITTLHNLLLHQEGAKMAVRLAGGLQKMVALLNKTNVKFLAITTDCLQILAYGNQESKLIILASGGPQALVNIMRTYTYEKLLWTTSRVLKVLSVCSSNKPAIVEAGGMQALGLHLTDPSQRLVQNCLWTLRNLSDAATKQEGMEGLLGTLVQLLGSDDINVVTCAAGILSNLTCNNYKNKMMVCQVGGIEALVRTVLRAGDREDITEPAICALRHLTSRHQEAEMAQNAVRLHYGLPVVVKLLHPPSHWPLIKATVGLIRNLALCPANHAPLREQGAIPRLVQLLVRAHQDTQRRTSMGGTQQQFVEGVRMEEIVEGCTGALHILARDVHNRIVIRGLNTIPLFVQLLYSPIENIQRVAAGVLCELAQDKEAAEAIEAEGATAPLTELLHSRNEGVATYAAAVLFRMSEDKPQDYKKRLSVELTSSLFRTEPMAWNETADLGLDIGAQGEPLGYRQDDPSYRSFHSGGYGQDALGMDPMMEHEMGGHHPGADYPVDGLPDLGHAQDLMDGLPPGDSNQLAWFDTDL
assay name: Fluorescence polarization IC50 (beta-catenin / 5FAM-TCF4 10-53 competition)
Type: binding
applied conditions: fluorescence polarization; read-out: beta-Catenin FP IC50
We begin with a simple list: items and their reported IC50.
metric name: IC50 (nM)

compound	scale unit	observed value
CC(=O)N1CCC[C@]12CCCCCC[C@@](C)(C(=O)N[C@@H](CC(=O)O)C(=O)N[C@@H](CC(=O)O)C(=O)N[C@@H](C)C(=O)N[C@@H](C)C(=O)N[C@@H](Cc1ccccc1)C(=O)N[C@@H](CC(C)C)C(=O)NC(C)(C)C(=O)N[C@@H](Cc1ccsc1)C(=O)N[C@@H](Cc1csc3ccccc13)C(=O)N[C@@H](CCC(N)=O)C(N)=O)NC(=O)[C@H](CC(C)(C)C)NC(=O)[C@H](CC(=O)O)NC2=O	nM	1950
CC(=O)N1CCC[C@]12CCCCCCC1(CCCCCCCCOC(=O)N3CC[C@@](C(=O)N[C@@H](Cc4ccsc4)C(=O)N[C@@H](Cc4csc5ccccc45)C(=O)N[C@@H](CCC(N)=O)C(N)=O)(C3)NC(=O)[C@H](CC(C)C)NC(=O)[C@H](Cc3ccccc3)NC(=O)[C@H](C)NC(=O)[C@H](CCCCNC(C)C)NC(=O)[C@H](CCC(N)=O)NC(=O)[C@H](CC(=O)O)NC1=O)NC(=O)[C@H](CC1CCCCC1)NC(=O)[C@H](CC(N)=O)NC2=O (stereo partly drawn)	nM	7200
CC(=O)N1CCC[C@]12CC=CCCCC1(CCCC=CCCCOC(=O)N3CC[C@@](C(=O)N[C@@H](Cc4ccccc4C(F)(F)F)C(=O)N[C@@H](Cc4csc5ccccc45)C(=O)N[C@@H](CCC(N)=O)C(N)=O)(C3)NC(=O)[C@H](CC(N)=O)NC(=O)[C@H](Cc3ccccc3)NC(=O)[C@H](C)NC(=O)[C@H](C)NC(=O)[C@H]([C@@H](C)O)NC(=O)[C@H](CC(N)=O)NC1=O)NC(=O)[C@H](CC(C)(C)C)NC(=O)[C@H](CC(=O)O)NC2=O (stereo partly drawn)	nM	1060
